# measured on: T1, human TREM2 (human, UniProt Q9NZC2 19-174, limits assumed)
# T1 construct: also called triggering receptor expressed on myeloid cells 2
# T1 sequence: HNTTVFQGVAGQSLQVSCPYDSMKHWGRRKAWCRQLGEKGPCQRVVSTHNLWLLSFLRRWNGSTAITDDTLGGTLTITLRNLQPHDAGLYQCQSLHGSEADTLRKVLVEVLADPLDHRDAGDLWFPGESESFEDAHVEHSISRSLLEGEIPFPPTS
# experiment summary: 2nd screen, 100 nM
property label: Binding Signal

Example cases with answers are listed next.
V91 (antibody, V domains shown, also called 6E7 variant V91) VH: EVQLVQSGAEVKKPGESLKISCKGSGYSFTSYWIAWVRQMPGKGLEWMGIIYPDDSDTRYSPSFQGQVTISADKSISTAYLQWSSLKASDTAMYFCARQRTFYYDSSDYFDYWGQGTLVTVSS VL: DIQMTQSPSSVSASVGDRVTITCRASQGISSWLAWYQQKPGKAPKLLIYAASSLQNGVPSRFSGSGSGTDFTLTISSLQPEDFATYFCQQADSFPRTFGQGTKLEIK | 0.61 fold over 6E7 parental antibody
V78 (antibody, V domains shown, also called 6E7 variant V78) VH: EVQLVQSGAEVKKPGESLKISCKGSGYRFTSYWIAWVRQMPGKGLEWMGIIYPGDSDTRYSPSFQGQVTISADKSISTAYLQWSSLKASDTAMYFCARQRTFYYDSSDYFDYWGQGTLVTVSS VL: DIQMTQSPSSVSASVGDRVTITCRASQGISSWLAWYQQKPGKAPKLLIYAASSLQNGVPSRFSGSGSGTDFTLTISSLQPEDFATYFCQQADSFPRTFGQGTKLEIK | 1.11 fold over 6E7 parental antibody

The reported value for V21 (antibody, V domains shown, also called 6E7 variant V21) VH: EVQLVQSGAEVKKPGESLKISCKGSGYSFTSYWIAWVRQMPGKGLEWMGIIYPGDSDTRYSPSFQGQVTISADKSISTAYLQWSSLKASDTAMYFCARQRTFYYDSSDFFDYWGQGTLVTVSS VL: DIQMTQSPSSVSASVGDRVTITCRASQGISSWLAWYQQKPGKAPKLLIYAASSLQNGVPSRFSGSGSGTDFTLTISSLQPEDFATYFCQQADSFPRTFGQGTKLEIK in terms of Binding Signal is 0.68 fold over 6E7 parental antibody
